test: NCI Yeast Anticancer Drug Screen. Data for the mlh1 rad18 strain (AID 175); settings: S. cerevisiae mlh1 rad18 strain growth inhibition; at 50.0 µM; hits give high values
About 79,000 compounds went through this panel and 15% of them were active in at least one assay; those are over-represented in the sample as a whole.
ATTRIBUTE MEASURED: growth inhibition (%)
Numbers only, in %.

Some compounds with known growth inhibition results, for comparison:
# COMPOUND, ATTRIBUTE MEASURED, UNITS SYMBOL, NUMERIC RESULT
data = [
    ("Cc1cc(N2CCCCC2)nc2ccccc12", "growth inhibition", "%", 9.25),
    ("Cn1nc2c(c1-c1cccnc1)CCCc1ccccc1-2", "growth inhibition", "%", 28.9),
    ("O=S(=O)(O)c1cccc2c(O)cccc12", "growth inhibition", "%", -32),
    ("COC(=O)C(=O)C1(c2ccccc2)CCCC(CN(C)C)=C1O (configuration not stated)", "growth inhibition", "%", -12.7),
    ("Oc1cccc2ccc(Br)nc12", "growth inhibition", "%", -3.25),
    ("CC[N+](C)(CC)CCOC(=O)c1ccccc1Oc1ccc(C)cc1", "growth inhibition", "%", 0.9),
    ("Cc1cc2nc3n(c2cc1C)C(=O)c1cc2ccccc2cc1-3", "growth inhibition", "%", 2.7),
    ("CCOC(=O)[C@H]1Nc2ccc(Cl)cc2[C@H]2OCC[C@@H]12", "growth inhibition", "%", -0.7),
    ("CC1CCc2[nH]nc(CC3CC(=O)NC(=O)C3)c2C1 (configuration not stated)", "growth inhibition", "%", 3.7),
    ("COC(=O)Nc1cccc(OC(=O)NC2CCCCC2)c1", "growth inhibition", "%", 16.4),
]

Could I get growth inhibition for every one of these entries?
1. OC(CNc1ncccn1)(c1ccccc1)c1ccccc1
2. O=C(O)C(CSC(c1ccccc1)(c1ccccc1)c1ccccc1)NSc1ccccc1[N+](=O)[O-] (configuration not stated)

1. -17.1
2. 97.8

* * *

test: NCI Yeast Anticancer Drug Screen. Data for the mec2-1 strain (AID 157); settings: S. cerevisiae mec2-1 strain, at 50.0 µM, hits give high values
Compounds without any hit were thinned out: in the full panel of roughly 79,000, 15% have a hit.
ATTRIBUTE MEASURED: growth inhibition (%)
One number for each entry, in %.

Here is how some compounds turned out for growth inhibition.
# COMPOUND, NUMERIC RESULT
data = [
    ("CCCCCCCCCCCCCCCCC(NC(C)=O)(C(=O)OCC)C(=O)OCC", 1.65),
    ("NCCC(=O)OC1CCCc2c(O)c3c(c(O)c21)C(=O)c1ccccc1C3=O (stereo not drawn)", 99.4),
    ("CCN(CC)CCCNc1ncnc2onc(C)c12", 15.2),
    ("C/C(Nc1ccc(Cl)cc1)=C1/CCOC1=O", 5.7),
    ("O=c1cc(O)cc(CO)o1", 5.7),
    ("CCN(CC)C(=O)CS(=O)(=O)c1ccc(N)cc1", -8.5),
    ("COCn1cnc2c(ccn2C2OC(CO)C(O)C2O)c1=O (stereo not drawn)", 0),
    ("COC/N=C(\\NC#N)NCOC", -1),
]

# per-item lookup of growth inhibition; items listed below
1. CC(C)=CCNc1ncnc2c1ncn2CCC#N
2. N#CCCN(CCC#N)c1ccc(C=Nc2ccc(F)cc2)cc1
3. Cc1ccc(NC(=S)Nc2ccccc2F)cc1
4. Fc1ccc(N=Cc2ccc(C=Nc3ccc(F)cc3)cc2)cc1
5. CCOc1cc2c(cc1O)CC[C@@H]1[C@@H]2CC[C@]2(C)C(N)CC[C@@H]12 (stereo partly drawn)

1. -6.55
2. 9.65
3. -13.2
4. 30.1
5. 5.85

I'm hoping you can list growth inhibition for every compound here, please.
1. O=C1OC(=O)C(Cl)=C1Cl
2. CCN(CC)CCN1C(=O)NC2(CCCCC2)C1=O
3. Nc1nc(C(=O)O)c(N=Nc2ccccc2)c(=O)[nH]1
4. CCOC(=O)C(C)=P(c1ccccc1)(c1ccccc1)c1ccccc1

1: -10.5; 2: -0.8; 3: -10.2; 4: -5.8

* * *

test: NCI Yeast Anticancer Drug Screen. Data for the mec2-1 strain (AID 157); conditions: S. cerevisiae mec2-1 strain, at 50.0 µM, hits give high values
The panel holds about 79,000 compounds, 15% with a hit somewhere; the sample as a whole holds those more often.
# cutoff 10% applies to growth inhibition; >= gives 1, < gives 0

Below are worked cases with known answers.
# COMPOUND, ASSIGNED CATEGORY
data = [
    ("Nc1ccc2c(c1)Oc1c(F)c(F)cc3c(=O)c(C(=O)O)cn-2c13", 1),
    ("CC(C)(C)C(=O)Oc1ccc[nH]c1=O", 0),
]

Is the recorded value of growth inhibition equal to or greater than 10% for this compound? CNc1nc(SC)nc2[nH]ncc12
0

Answer whether growth inhibition of CC(C)CC(NC(=O)OC(C)(C)C)C(=O)NC(Cc1c[nH]c2ccccc12)C(=O)NN (stereo unspecified) is greater than or equal to 10%.
1

Could you verify whether the entry CCOC(=O)CCCCCC(C(=O)OCC)c1nc2ccccc2[nH]c1=O (stereo unspecified) shows growth inhibition of no less than 10%?
0

Is growth inhibition at least 10%? Consider Nc1nc2c(c(-c3cccc(Cl)c3)n1)COC/C2=C\c1cccc(Cl)c1
1

* * *

test: NCI Yeast Anticancer Drug Screen. Data for the mlh1 rad18 strain (AID 175); conditions: S. cerevisiae mlh1 rad18 strain growth inhibition; at 50.0 µM; hits give high values
This is part of a sample that, as a whole, favours compounds with a hit. Of some 79,000 tested, about 15% had one in any assay.
ATTRIBUTE MEASURED: growth inhibition (%)
Answers are plain numbers, in %.

Solved cases below.
# COMPOUND, ATTRIBUTE MEASURED, UNITS SYMBOL, NUMERIC RESULT
measured = [
    ("Clc1ccc(/C=C2/c3ccccc3-c3nc4ccccc4cc32)cc1", "growth inhibition", "%", 6.85),
    ("O=C(C[n+]1ccccc1Cl)c1ccc(I)cc1", "growth inhibition", "%", 56.8),
    ("Cn1c(=O)c2c(nc(CCCCCCCCc3nc4c(c(=O)n(C)c(=O)n4C)n3C)n2C)n(C)c1=O", "growth inhibition", "%", -14.7),
]

Parameters: items (list). Returns: growth inhibition for each item.
1. CCc1cccc(CC)c1NC(=S)NC(=O)c1ccc(Br)cc1
2. CN1C2CCC1C1N=NN(c3cc(C(F)(F)F)cc(C(F)(F)F)c3)C1(N1CCOCC1)C2 (centres undefined)
3. ClCc1c(Cl)c(Cl)c(CCl)c(Cl)c1Cl
4. CCOC(=O)NC(C(=O)OCC)(N1CCN(c2cc3c(cc2F)c(=O)c(C(=O)O)cn3CC)CC1)C(F)(F)F (centres undefined)
5. O=[N+]([O-])c1ccc(Cl)c(OCCBr)c1
6. COc1ccc(N=Nc2c(C)c(C#N)c(=S)n(C3OC(CO)C(O)C(O)C3O)c2C)cc1 (centres undefined)

[-9.75, -21.8, -10.1, -5.05, 9, 21.7]

* * *

assay: NCI Yeast Anticancer Drug Screen. Data for the mec2-1 strain (AID 157); conditions: S. cerevisiae mec2-1 strain, at 50.0 µM, hits give high values
The panel holds about 79,000 compounds, 15% with a hit somewhere; the sample as a whole holds those more often.
ATTRIBUTE MEASURED: growth inhibition (%)
Numbers only, in %.

# COMPOUND, growth inhibition (%)
measured = [
    ("FC1C2=C(SC1(F)F)C1CCC2C1 (configuration not stated)", -2.2),
]

Each of the following entries comes with a recorded value; kindly state growth inhibition for each.
1. CCCCCCC1CCC(=O)CC1
2. c1ccc2c(c1)[nH]c1ccccc12
3. COP(=O)(OC)/C(=C\c1cn(C(c2ccccc2)(c2ccccc2)c2ccccc2)cn1)NC(C)=O
4. CC1(C)N=C(C2CCCN2C(=O)OCc2ccccc2)OC1=O (configuration not stated)
5. CC(C)=Cc1cc(CCC/C(C)=C/Cc2c(O)cc(C)c(C(=O)O)c2O)co1

4.3
-15.9
-32
-20.7
-25.9

Give me growth inhibition for each of these compounds, listed below.
1. OC1CCC2OC12 (configuration not stated)
2. C=C(C)C(=O)Oc1ccccc1-c1ccccc1
3. COc1cc2c(c([N+](=O)[O-])c1)NC(=O)C(c1ccccc1)S2 (configuration not stated)

0.55
-10.2
-12.3

* * *

assay: NCI Yeast Anticancer Drug Screen. Data for the cln2 rad14 strain (AID 165);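 further: 0% = growth equal to vehicle treated cultures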; conditions: S. cerevisiae cln2 rad14 strain, at 50.0 µM, hits give high values
This is part of a sample that, as a whole, favours compounds with a hit. Of some 79,000 tested, about 15% had one in any assay.
Exercise: state measured growth inhibition for each of the compounds provided.
Numbers only, in %.

The cases that follow already have their growth inhibition on record.
# COMPOUND, UNITS SYMBOL, growth inhibition
data = [
    ("CC(=O)c1ccc([C@H](O)[C@H](CO)NC(=O)C(Cl)Cl)cc1", "%", -57.4),
    ("Cn1c(=O)c2[nH]c(=S)n(CC3CCCCC3)c2n(C)c1=O", "%", -29),
]

Would you be so kind as to report growth inhibition for each listed record?
1. CCOC(=O)C(/C(=N\NC(=O)OC)C(=O)Nc1cc(OC)ccc1OC)c1cnc2ccccc2n1 (stereo unspecified)
2. CCN(CC)CCN(C)C(O)(C(=O)c1ccccc1)C1CCCC1 (stereo unspecified)

18.8
-4.35

For each of the compounds below, note its growth inhibition.
1. Cc1ccc(CCCC(=O)O)cc1C
2. CCCC(=O)C1=C(O)C(CC2=C(O)C(C)(C)C(=O)C(C(=O)CCC)=C2O)=C(O)C(C)(C)C1=O
3. Cc1ccc(NC(=O)C(c2ccccc2)c2ccccc2)cc1
4. CCCCNC(=S)N/N=C/c1ccc(OC)cc1
5. Cn1nc(-c2cccc(-c3nn(C)c(=NCCO)s3)n2)sc1=NCCO
6. CCOC(=O)CSc1cc(C)[o+]c(C)c1

[10.6, 1, -2.55, -41, -6.7, 15]

Form field: reported growth inhibition of NC(=O)c1nnn(Cc2ccccc2)c1C(N)=O
-33.6
